Test system: HT-29 (monolayer culture of a human colon carcinoma)
Test: Cytotoxic activity screening, HT-29 cells
Type: cell-based
Settings: Homo sapiens, HT-29, 72 h, three days of incubation, Crystal Violet, approximate IC50
Method: Cell Cultures. […] A separate set of cultures without drug was seeded as control growth to ensure that cells remained in exponential phase of growth. […] An approximately IC50 was determined by comparing the growth in wells with drug to the growth in wells control.
Parameter IC50: see the listing below.
I only need the number, in ng/mL, no unit after it.

// known answers, use as guide
[[record]]
compound = "COc1c(C)cc2c(c1O)[C@@H]1C3[C@@H]4SC[C@H](NC(=O)/C=C/c5ccccc5)C(=O)OC[C@@H](c5c6c(c(C)c(OC(C)=O)c54)OCO6)N3[C@@H](O)[C@H](C2)N1C (stereo in doubt)"
quantity_name = "IC50"
value_reported = 0.5

[[record]]
compound = "COc1c(C)cc2c(c1O)[C@@H]1C3[C@@H]4SC[C@H](NC(=O)C(NC(C)=O)C(C)C)C(=O)OC[C@@H](c5c6c(c(C)c(OC(C)=O)c54)OCO6)N3[C@@H](O)[C@H](C2)N1C (stereo partly drawn)"
quantity_name = "IC50"
value_reported = 1


Now for a further compound.
Return IC50 measured with HT-29 (monolayer culture of a human colon carcinoma) given this compound: COc1c(C)cc2c(c1O)[C@@H]1C3[C@@H]4SC[C@H](NC(=O)CCC(=O)O)C(=O)OC[C@@H](c5c6c(c(C)c(OC(C)=O)c54)OCO6)N3[C@@H](O)[C@H](C2)N1C (stereo partly drawn)
100
